Please respond with reported Percent Effect for every item in the list.
- Test system: Wolbachia pipientis
- assay-summary: Anti-Wolbachia Cell-Based Screen
- Format: functional
- Parameters: scale not given: in the data most compounds retested in dose-response had high values
- particulars: 5 µM
Out of some 48,000 compounds screened, about 13,000 (27%) showed an effect of 50% or more. The list shows a part of the results.
Answers are plain numbers, in %.

# molecule, units-symbol, Percent Effect
measured = [
    ("CC1=C(C(=O)N(C)Cc2n[nH]c3c2CCCCC3)C(C)NC(=O)N1 (stereo not given)", "%", 97.58),
]

Provide the reported Percent Effect of each entry below, same order.
1. CC1=C(C(=O)NCCc2n[nH]c3c2CCCC3)C(C)NC(=O)N1 (stereo not given)
2. CN(Cc1noc2c1CCCC2)C(=O)C1CCOc2ccccc2C1 (stereo not given)

RESULT:
140.8
-27.45

Provide the reported Percent Effect of each entry below, same order.
1. CC(=O)N1C[C@@H]2CC[C@H](C1)N(C(=O)CCc1n[nH]c3c1CCCC3)C2
2. O=C(NCc1n[nH]c2c1CCCCC2)c1cnn2c1CCCC2

RESULT:
1: -10.18; 2: -12.98
